target: human GPR40 receptor (Homo sapiens, UniProt O14842); test: IP1 accumulation measurements using the IPOne assay system (1321N1 cells stably expressing human GPR40 receptor); details: 1321N1 cells expressing human GPR40, 1 h stimulation at 37° C.
Sequence (O14842 whole entry): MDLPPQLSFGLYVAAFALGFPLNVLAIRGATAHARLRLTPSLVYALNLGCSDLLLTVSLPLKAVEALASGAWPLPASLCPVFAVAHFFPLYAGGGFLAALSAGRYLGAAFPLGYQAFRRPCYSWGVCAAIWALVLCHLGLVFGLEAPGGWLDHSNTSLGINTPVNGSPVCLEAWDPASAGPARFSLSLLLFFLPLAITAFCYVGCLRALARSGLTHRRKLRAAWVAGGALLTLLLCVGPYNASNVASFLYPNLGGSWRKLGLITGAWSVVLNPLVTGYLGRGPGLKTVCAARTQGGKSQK
pEC50: −log10 of the molar value.

Compound | pEC50
Cc1cc(-c2nnn(CC(C)(C)O)n2)cc(C)c1-c1ccc(F)c2c1CC[C@H]2Nc1ccc([C@H]2C[C@@H]2C(=O)O)cn1 [Example 14] | 8.40
Cc1cc(OCCC(C)(C)O)cc(C)c1-c1cccc2c1CC[C@H]2Nc1ccc(C2C[C@@H]2C(=O)O)cn1 (mixture of isomers) [Example 6] | 7.72
Nc1cc(F)c(-c2ccc(F)c3c2CC[C@H]3Nc2ccc([C@H]3C[C@@H]3C(=O)O)cn2)c(F)c1 [Example 58] | 6.34
Cc1cc(O[C@H]2CCOC2)cc(C)c1-c1ccc(F)c2c1CC[C@H]2Nc1ccc([C@H]2C[C@@H]2C(=O)O)cn1 [Example 13] | 7.57

* * *

biological target: human GPR40 receptor (Homo sapiens, UniProt O14842); assay: IP1 accumulation measurements using the IPOne assay system (1321N1 cells stably expressing human GPR40 receptor); settings: 1321N1 cells expressing human GPR40, 1 h stimulation at 37° C.

Compound | EC50 / nM
Cc1cc(OCC2CCOC2)cc(C)c1-c1ccc(F)c2c1CC[C@H]2Nc1ccc([C@H]2C[C@@H]2C(=O)O)cn1 (some centres unmarked) | 11
Cc1cc(O)cc(C)c1-c1ccc(F)c2c1CC[C@H]2Nc1ccc([C@H]2C[C@@H]2C(=O)O)cn1 | 33
Cc1cc(OCCC(C)(C)O)cc(C)c1-c1cccc2c1CC[C@H]2Nc1ccc([C@@H]2C[C@H]2C(=O)O)cn1 | 497
CNC(=O)c1cc(C)c(-c2ccc(F)c3c2CC[C@H]3Nc2ccc([C@H]3C[C@@H]3C(=O)O)cn2)c(C)c1 | 39
Cc1cc(-c2ccn(C)c(=O)n2)cc(C)c1-c1ccc(F)c2c1CC[C@H]2Nc1ccc([C@H]2C[C@@H]2C(=O)O)cn1 | 6
Cc1cc(C(N)=O)cc(C)c1-c1ccc(F)c2c1CC[C@H]2Nc1ccc([C@H]2C[C@@H]2C(=O)O)cn1 | 60
Cc1cc(-c2ccn(C)c(=O)c2)cc(C)c1-c1ccc(F)c2c1CC[C@H]2Nc1ccc([C@H]2C[C@@H]2C(=O)O)cn1 | 6
COc1cc(C)c(-c2ccc(F)c3c2CC[C@H]3Nc2ccc([C@H]3C[C@@H]3C(=O)O)cn2)c(C)c1 | 16
Cc1ccc(Cl)c(-c2ccc(F)c3c2CC[C@H]3Nc2ccc([C@H]3C[C@@H]3C(=O)O)cn2)c1Cl | 7
Cc1cc(C(=O)N(C)C)cc(C)c1-c1ccc(F)c2c1CC[C@H]2Nc1ccc([C@H]2C[C@@H]2C(=O)O)cn1 | 186
Cc1cc(OCC2(C)COC2)cc(C)c1-c1ccc(F)c2c1CC[C@H]2Nc1ccc([C@H]2C[C@@H]2C(=O)O)cn1 | 14
Cc1cc(OCC2CCOCC2)cc(C)c1-c1ccc(F)c2c1CC[C@H]2Nc1ccc([C@H]2C[C@@H]2C(=O)O)cn1 | 5
Cc1cc(C(=O)O)cc(C)c1-c1ccc(F)c2c1CC[C@H]2Nc1ccc([C@H]2C[C@@H]2C(=O)O)cn1 | 940
Cc1cc(OCC(C)(C)C#N)cc(C)c1-c1cccc2c1CC[C@H]2Nc1ccc([C@H]2C[C@@H]2C(=O)O)cn1 | 22
